B1: EF-hand domain-containing protein 1 (Homo sapiens), Q5JVL4 (parent)
chain: MVSNPVHGLPFLPGTSFKDSTKTAFHRSQTLSYRNGYAIVRRPTVGIGGDRLQFNQLSQAELDELASKAPVLTYGQPKQAPPADFIPAHVAFDKKVLKFDAYFQEDVPMSTEEQYRIRQVNIYYYLEDDSMSVIEPVVENSGILQGKLIKRQRLAKNDRGDHYHWKDLNRGINITIYGKTFRVVDCDQFTQVFLESQGIELNPPEKMALDPYTELRKQPLRKYVTPSDFDQLKQFLTFDKQVLRFYAIWDDTDSMYGECRTYIIHYYLMDDTVEIREVHERNDGRDPFPLLMNRQRVPKVLVENAKNFPQCVLEISDQEVLEWYTAKDFIVGKSLTILGRTFFIYDCDPFTRRYYKEKFGITDLPRIDVSKREPPPVKQELPPYNGFGLVEDSAQNCFALIPKAPKKDVIKMLVNDNKVLRYLAVLESPIPEDKDRRFVFSYFLATDMISIFEPPVRNSGIIGGKYLGRTKVVKPYSTVDNPVYYGPSDFFIGAVIEVFGHRFIILDTDEYVLKYMESNAAQYSPEALASIQNHVRKREAPAPEAESKQTEKDPGVQELEALIDTIQKQLKDHSCKDNIREAFQIYDKEASGYVDRDMFFKICESLNVPVDDSLVKELIRMCSHGEGKINYYNFVRAFSN

Variants of: B1
Details: with goga2_human GOLGA2, Q08379
Sequence (Q08379 whole entry): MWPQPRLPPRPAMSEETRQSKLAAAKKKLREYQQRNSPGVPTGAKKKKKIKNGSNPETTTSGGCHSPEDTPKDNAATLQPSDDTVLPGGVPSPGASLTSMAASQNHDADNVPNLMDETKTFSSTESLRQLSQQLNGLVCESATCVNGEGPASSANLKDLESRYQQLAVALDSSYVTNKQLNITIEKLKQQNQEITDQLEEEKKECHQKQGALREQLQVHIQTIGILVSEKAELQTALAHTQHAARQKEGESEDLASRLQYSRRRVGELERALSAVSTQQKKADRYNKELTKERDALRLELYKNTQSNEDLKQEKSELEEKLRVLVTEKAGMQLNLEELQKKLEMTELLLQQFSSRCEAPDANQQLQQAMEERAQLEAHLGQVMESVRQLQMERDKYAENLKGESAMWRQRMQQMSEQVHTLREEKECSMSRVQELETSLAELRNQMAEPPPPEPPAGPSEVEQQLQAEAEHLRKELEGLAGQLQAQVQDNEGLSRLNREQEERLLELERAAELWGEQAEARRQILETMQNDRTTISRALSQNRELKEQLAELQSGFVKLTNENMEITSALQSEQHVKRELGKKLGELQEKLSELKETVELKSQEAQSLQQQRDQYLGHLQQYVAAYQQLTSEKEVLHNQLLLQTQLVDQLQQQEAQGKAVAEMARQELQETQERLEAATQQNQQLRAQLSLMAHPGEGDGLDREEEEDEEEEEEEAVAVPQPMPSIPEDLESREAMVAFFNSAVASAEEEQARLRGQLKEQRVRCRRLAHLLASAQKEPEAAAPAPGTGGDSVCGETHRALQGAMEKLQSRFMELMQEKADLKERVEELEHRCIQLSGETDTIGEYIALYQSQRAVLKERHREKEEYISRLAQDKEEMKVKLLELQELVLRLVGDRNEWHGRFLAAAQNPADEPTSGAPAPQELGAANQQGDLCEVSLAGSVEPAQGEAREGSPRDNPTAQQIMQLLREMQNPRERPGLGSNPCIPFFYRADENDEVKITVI
REPORTED ENDPOINT: effect of a mutation on the interaction

In [3]: df
Out[3]:
   mutation_notation        measured
0              R159W  with no effect
1              T508R  with no effect
2              M448T  with no effect
